# Test system: MDA-MB-453
# Measurement Protocol: drug sensitivity score (DSS), single agent (DSS (weighted AUC score)); higher = more sensitive (stronger viability decrease); extreme values may be limits of the assay
# Run Parameters: BLU9931 0 nM; 72 h
Output TRUE for drug sensitivity score not less than 20; output FALSE otherwise.

Before answering, review these 8 worked examples.
>>> assigned_category("Cc1[nH]c2ccccc2c1CCNCc1ccc(/C=C/C(=O)NO)cc1")
"TRUE"
>>> assigned_category("COc1cccc2c1C(=O)c1c(O)c3c(c(O)c1C2=O)C[C@@](O)(C(C)=O)C[C@@H]3O[C@H]1C[C@H](N)[C@H](O)[C@H](C)O1")
"FALSE"
>>> assigned_category("CCCCc1nc2cc(/C=C/C(=O)NO)ccc2n1CCN(CC)CC")
"TRUE"
>>> assigned_category("Cc1nc(Nc2n[nH]c3c2CN(C(=O)N[C@H](CN(C)C)c2ccccc2)C3(C)C)c2sccc2n1")
"FALSE"
>>> assigned_category("CO[C@@]12[C@H](COC(N)=O)C3=C(C(=O)C(C)=C(N)C3=O)N1C[C@@H]1N[C@@H]12")
"FALSE"
>>> assigned_category("COc1cc(Nc2c(C#N)cnc3cc(OCCCN4CCN(C)CC4)c(OC)cc23)c(Cl)cc1Cl")
"FALSE"
>>> assigned_category("CCc1c2c(nc3ccc(O)cc13)-c1cc3c(c(=O)n1C2)COC(=O)[C@]3(O)CC")
"TRUE"
>>> assigned_category("Cn1cc(CNCC2CCN(c3ncc(C(=O)NO)cn3)CC2)c2ccccc21")
"TRUE"

Turning now to a further compound:
Q: Test whether the compound COc1cc2nccc(Oc3ccc(NC(=O)C4(C(=O)Nc5ccc(F)cc5)CC4)cc3)c2cc1OC [Cabozantinib] records drug sensitivity score of 20 or higher.
A: FALSE

----------
# Test system: MDA-MB-453
# Measurement Protocol: drug sensitivity score (DSS), single agent (DSS (weighted AUC score)); higher = more sensitive (stronger viability decrease); extreme values may be limits of the assay
# Run Parameters: BLU9931 0 nM; 72 h
Assay Readout: drug sensitivity score
The reply should be a number, written without any unit.

>>> value_reported("CC1(C)CCC(c2ccc(Cl)cc2)=C(CN2CCN(c3ccc(C(=O)NS(=O)(=O)c4ccc(N[C@H](CCN5CCOCC5)CSc5ccccc5)c(S(=O)(=O)C(F)(F)F)c4)cc3)CC2)C1")
0.3

Q: What reported drug sensitivity score corresponds to `CC(C)Oc1ccc(C(=O)N[C@H](CNC(=O)CN(C)C)Cc2ccc(-c3cn4cccc([C@H](C)O)c4n3)cc2)cc1Cl` on MDA-MB-453?
A: 14.3

Q: Same lookup for `Nc1ncn([C@@H]2O[C@H](CO)[C@@H](O)[C@H]2O)c(=O)n1` , please.
A: 0.5

Q: And `Nc1nccc(-c2c(-c3ccc(F)cc3)ncn2C2CCCCC2)n1` ?
A: 1.1

Q: Next up: `C[C@H](Nc1ncnc2[nH]cnc12)c1cc2ccc(F)cc2nc1-c1ccccn1`
A: 1.1

Q: Try `CCNc1nc(Nc2cc(F)c(C(=O)N3CCOCC3)cc2OC)ncc1C(F)(F)F` next.
A: 0

Q: Also `CCc1cc2c(cc1N1CCC(N3CCOCC3)CC1)C(C)(C)c1[nH]c3cc(C#N)ccc3c1C2=O` , if possible.
A: 0.9

Q: What do you have for `COc1ccc(Cn2ccc3ccc(C(=O)NO)cc32)cc1` ?
A: 0.8
